# Target or system: Glucocorticoid receptor (Homo sapiens) (UniProt P04150)
# Sequence (P04150 whole entry, looked up): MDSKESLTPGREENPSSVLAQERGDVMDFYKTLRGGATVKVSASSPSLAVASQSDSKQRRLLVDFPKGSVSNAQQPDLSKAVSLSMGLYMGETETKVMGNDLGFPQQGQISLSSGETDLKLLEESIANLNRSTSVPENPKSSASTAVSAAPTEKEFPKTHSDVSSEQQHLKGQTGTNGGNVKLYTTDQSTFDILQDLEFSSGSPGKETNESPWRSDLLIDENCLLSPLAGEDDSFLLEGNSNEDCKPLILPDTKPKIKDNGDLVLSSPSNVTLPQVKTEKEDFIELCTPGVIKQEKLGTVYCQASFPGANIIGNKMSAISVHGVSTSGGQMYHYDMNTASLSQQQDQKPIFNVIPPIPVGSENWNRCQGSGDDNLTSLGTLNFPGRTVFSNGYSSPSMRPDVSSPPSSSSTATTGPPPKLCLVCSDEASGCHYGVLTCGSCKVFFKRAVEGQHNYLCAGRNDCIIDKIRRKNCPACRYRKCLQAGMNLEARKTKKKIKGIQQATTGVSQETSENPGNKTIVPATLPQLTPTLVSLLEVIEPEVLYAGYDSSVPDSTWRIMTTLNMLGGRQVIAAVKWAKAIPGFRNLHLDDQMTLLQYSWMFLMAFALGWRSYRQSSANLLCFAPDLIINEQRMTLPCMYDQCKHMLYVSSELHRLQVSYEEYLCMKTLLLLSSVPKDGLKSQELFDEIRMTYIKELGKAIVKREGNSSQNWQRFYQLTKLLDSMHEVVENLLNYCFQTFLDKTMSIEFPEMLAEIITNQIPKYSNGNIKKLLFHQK
# Test method notes: ATG_GR_TRANS: Attagene TRANS-FACTORIAL HepG2 Assay for human Glucocorticoid Receptor (GR) (AID 2282978);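 further: activators score as hits since higher reporter transcript over DMSO is fitted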
# Condition info: HepG2 Attagene TRANS GR reporter, mRNA transcription
# Experimental: ATG_TRANS is a cell-based, multiplexed-readout assay that uses HepG2, a human liver cell line, with measurements taken at 24 hours after chemical dosing in a 24-well plate.ATG_GR_TRANS is one of 30 assay component(s) measured or calculated from the ATG_TRANS assay. […] This assay endpoint, ATG_GR_TRANS, was analyzed in the positive analysis fitting direction relative to DMSO as the negative control and baseline of activity. […]
Results filed as inconclusive are left out. Calls of active or inactive are those of the source. How the source made its calls: active means hit-call score of the fitted dose curve at least 0.9, where 1 is the maximum; inconclusive means response in the unintended direction; inactive means score below 0.9.
Endpoint: AC50

[
  {
    "Compound": "O=C(Cc1ccccc1)c1ccccc1",
    "Endpoint": "AC50",
    "Reading": "inactive"
  },
  {
    "Compound": "Clc1ccc(C2(Cn3cncn3)CC(Br)CO2)c(Cl)c1 (configuration not stated)",
    "Endpoint": "AC50",
    "Reading": "inactive"
  },
  {
    "Compound": "CC(=O)[O][Hg][c]1ccccc1",
    "Endpoint": "AC50",
    "Reading": "inactive"
  },
  {
    "Compound": "CC12CC1(C)C(=O)N(c1cc(Cl)cc(Cl)c1)C2=O (configuration not stated)",
    "Endpoint": "AC50",
    "Reading": "inactive"
  },
  {
    "Compound": "C=C(C)C(=O)[O][Sn]([CH2]CCC)([CH2]CCC)[CH2]CCC",
    "Endpoint": "AC50",
    "Reading": "1980 nM (active)"
  },
  {
    "Compound": "CCC(=O)C(CC(C)N(C)C)(c1ccccc1)c1ccccc1 (configuration not stated)",
    "Endpoint": "AC50",
    "Reading": "inactive"
  },
  {
    "Compound": "O=CC=O",
    "Endpoint": "AC50",
    "Reading": "inactive"
  }
]

---

# Read-out: Tissue Factor, F3 (gene 2152)
# Test method notes: BSK_LPS_TissueFactor: BioMAP Diversity Plus: LPS Assay for Tissue Factor Biomarker Activity (AID 2283084)
# Condition info: primary human HUVEC with PBMC; actives raise or lower the signal
Activity calls are given as the source filed them. The calls were made as follows: active = hit-call score of the fitted dose curve at least 0.9, where 1 is the maximum; inactive = score below 0.9.
Possible outcomes: active, inactive

[
  {
    "Compound": "O=c1[nH]c(=O)[nH]c(=O)[nH]1",
    "Class name": "inactive"
  },
  {
    "Compound": "COC(=O)c1sccc1S(=O)(=O)NC(=O)Nc1nc(C)nc(OC)n1",
    "Class name": "inactive"
  },
  {
    "Compound": "CC(C)c1ccc(CO)cc1",
    "Class name": "inactive"
  },
  {
    "Compound": "CCSC(C)CC1CC(=O)C(C(CC)=NOC/C=C/Cl)=C(O)C1 (stereo unspecified)",
    "Class name": "inactive"
  },
  {
    "Compound": "CCOP(=S)(OCC)Oc1ccc(S(C)=O)cc1 (stereo unspecified)",
    "Class name": "inactive"
  },
  {
    "Compound": "O=S(=O)(c1ccc(Cl)cc1)c1ccc(Cl)cc1",
    "Class name": "inactive"
  },
  {
    "Compound": "CCOC(=O)/C=C(C)/C=C/C[C@@H](C)CCCC(C)C",
    "Class name": "active"
  },
  {
    "Compound": "CCCCCCCCc1ccc(O)cc1",
    "Class name": "active"
  },
  {
    "Compound": "Cn1sc(Cl)cc1=O",
    "Class name": "inactive"
  },
  {
    "Compound": "COc1cc(OC)nc(NC(=O)NS(=O)(=O)c2ncccc2C(=O)N(C)C)n1",
    "Class name": "inactive"
  },
  {
    "Compound": "CCN1CCC2(CC1)COc1cc3c(cc12)N(C(=O)c1ccc(-c2ccc(-c4nnc(C)o4)cc2C)cc1)CC3",
    "Class name": "active"
  },
  {
    "Compound": "CC(C)(C)CC(C)(C)c1ccc(O)cc1",
    "Class name": "active"
  },
  {
    "Compound": "CCCCC(CC)CO[N+](=O)[O-] (stereo unspecified)",
    "Class name": "inactive"
  },
  {
    "Compound": "CCC(=O)C(CC(C)N(C)C)(c1ccccc1)c1ccccc1 (stereo unspecified)",
    "Class name": "inactive"
  },
  {
    "Compound": "O=C(O)C(F)(F)C(F)(F)C(F)(F)C(F)(F)C(F)(F)C(F)(F)F",
    "Class name": "inactive"
  },
  {
    "Compound": "C[C@]12CCC(=O)C[C@@H]1CC[C@@H]1[C@@H]2CC[C@]2(C)[C@@H](O)CC[C@@H]12",
    "Class name": "inactive"
  },
  {
    "Compound": "COP(=S)(OC)Oc1c(Cl)cc(C)cc1Cl",
    "Class name": "inactive"
  },
  {
    "Compound": "BrCCBr",
    "Class name": "inactive"
  },
  {
    "Compound": "C[C@@H]1C[C@@H]([C@H](O)CC2CC(=O)NC(=O)C2)C(=O)[C@@H](C)C1",
    "Class name": "active"
  },
  {
    "Compound": "CC(=O)C(Cl)C(=O)N(C)C (stereo unspecified)",
    "Class name": "active"
  },
  {
    "Compound": "ClC(Cl)=C(Cl)C(Cl)=C(Cl)Cl",
    "Class name": "active"
  },
  {
    "Compound": "COC[C@H](C)N(C(=O)CCl)c1c(C)csc1C",
    "Class name": "inactive"
  },
  {
    "Compound": "O=Cc1cccc(Oc2ccccc2)c1",
    "Class name": "inactive"
  },
  {
    "Compound": "Nc1ncc([N+](=O)[O-])s1",
    "Class name": "inactive"
  },
  {
    "Compound": "O=C(O)C(Cl)(Cl)Cl",
    "Class name": "inactive"
  },
  {
    "Compound": "COP(=S)(OC)Oc1cc(Cl)c(Cl)cc1Cl",
    "Class name": "inactive"
  }
]

---

# Target or system: Estrogen receptor (Homo sapiens)
# Test method notes: CCTE_Deisenroth_AIME_384WELL_LUC_Shift: CCTE's 384-well Estrogen Receptor Transactivation Assay with AIME metabolic competence data shift (ERTA luciferase; difference in metabolism positive and negative), Deisenroth Lab (AID 2284041);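 further: shift is response with S9 minus without S9 so positive means metabolism raised ER signal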
The source made the active and inactive calls. How the source made its calls: active means hit-call score of the fitted dose curve at least 0.9, where 1 is the maximum; inactive means score below 0.9.
Possible outcomes: active, inactive

[
  {
    "Compound": "CNC(=O)O/N=C/C(C)(C)S(C)=O (stereo unspecified)",
    "Target or system": "Estrogen receptor (Homo sapiens)",
    "Class name": "inactive"
  },
  {
    "Compound": "NNC(=S)NN",
    "Target or system": "Estrogen receptor (Homo sapiens)",
    "Class name": "inactive"
  },
  {
    "Compound": "CC(=O)[O][Hg][c]1ccccc1",
    "Target or system": "Estrogen receptor (Homo sapiens)",
    "Class name": "inactive"
  },
  {
    "Compound": "CC1(C)CCC(Cc2ccc(Cl)cc2)C1(O)Cn1cncn1 (stereo unspecified)",
    "Target or system": "Estrogen receptor (Homo sapiens)",
    "Class name": "inactive"
  },
  {
    "Compound": "NC(=O)O",
    "Target or system": "Estrogen receptor (Homo sapiens)",
    "Class name": "inactive"
  },
  {
    "Compound": "CC(C)(C)c1cc(O)ccc1O",
    "Target or system": "Estrogen receptor (Homo sapiens)",
    "Class name": "active"
  },
  {
    "Compound": "CC(=O)C=C(C)C",
    "Target or system": "Estrogen receptor (Homo sapiens)",
    "Class name": "inactive"
  },
  {
    "Compound": "CC(=O)c1cc(C(C)(C)C)cc2c1CCC2(C)C",
    "Target or system": "Estrogen receptor (Homo sapiens)",
    "Class name": "inactive"
  },
  {
    "Compound": "C=C(C)C#N",
    "Target or system": "Estrogen receptor (Homo sapiens)",
    "Class name": "inactive"
  },
  {
    "Compound": "CCOC(=O)Nc1cccc(OC(=O)Nc2ccccc2)c1",
    "Target or system": "Estrogen receptor (Homo sapiens)",
    "Class name": "inactive"
  },
  {
    "Compound": "CNC",
    "Target or system": "Estrogen receptor (Homo sapiens)",
    "Class name": "inactive"
  },
  {
    "Compound": "c1cc[c]([Hg][c]2ccccc2)cc1",
    "Target or system": "Estrogen receptor (Homo sapiens)",
    "Class name": "active"
  },
  {
    "Compound": "COc1ccc(C=O)cc1",
    "Target or system": "Estrogen receptor (Homo sapiens)",
    "Class name": "inactive"
  },
  {
    "Compound": "[O-][Cl+2]([O-])O",
    "Target or system": "Estrogen receptor (Homo sapiens)",
    "Class name": "inactive"
  },
  {
    "Compound": "O=S(=O)(c1ccc(Cl)cc1)c1ccc(Cl)cc1",
    "Target or system": "Estrogen receptor (Homo sapiens)",
    "Class name": "inactive"
  },
  {
    "Compound": "O=C1C(Cl)=C(Cl)C(=O)c2ccccc21",
    "Target or system": "Estrogen receptor (Homo sapiens)",
    "Class name": "inactive"
  }
]
